# collection of IC50 values tested on Estrogen receptor beta (Homo sapiens)
# Sequence (Q92731 whole entry): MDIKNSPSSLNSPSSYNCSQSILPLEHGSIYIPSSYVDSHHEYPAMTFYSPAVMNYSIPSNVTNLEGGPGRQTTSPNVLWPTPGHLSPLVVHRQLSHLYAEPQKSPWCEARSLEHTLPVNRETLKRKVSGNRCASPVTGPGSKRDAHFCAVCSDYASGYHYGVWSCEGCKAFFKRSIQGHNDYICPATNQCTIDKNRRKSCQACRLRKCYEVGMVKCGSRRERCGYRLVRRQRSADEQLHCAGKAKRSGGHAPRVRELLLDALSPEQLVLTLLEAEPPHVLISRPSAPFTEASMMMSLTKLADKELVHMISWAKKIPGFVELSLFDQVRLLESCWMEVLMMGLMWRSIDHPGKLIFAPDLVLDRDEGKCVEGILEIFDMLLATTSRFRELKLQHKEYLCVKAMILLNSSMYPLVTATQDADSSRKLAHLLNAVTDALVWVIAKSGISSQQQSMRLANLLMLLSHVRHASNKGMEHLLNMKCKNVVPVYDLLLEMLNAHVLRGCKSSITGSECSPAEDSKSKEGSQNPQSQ
Enter your answer as a number in nM; do not include the unit.

Worked examples follow.
{"columns": ["structure", "target or system", "unit of measure", "IC50"],
 "data": [
  ["CCCCCCCCCc1c(O)cc(O)c2c1O[C@H](c1ccc(O)cc1)CC2=O", "Estrogen receptor beta (Homo sapiens)", "nM", 113],
  ["CC(C)CCc1c(O)cc(O)c2c1O[C@H](c1ccc(O)cc1)CC2=O", "Estrogen receptor beta (Homo sapiens)", "nM", 59]
]}

Value wanted: IC50 (Estrogen receptor beta (Homo sapiens)) of entry `Cc1c(O)cc(O)c2c1O[C@H](c1ccc(O)cc1)CC2=O` 863

Request: `O=C1C[C@@H](c2ccc(O)cc2)Oc2cc(O)cc(O)c21` 13500

Repeat for the following compound: `O=C1C[C@@H](c2ccc(O)cc2)Oc2c(Cc3ccccc3)c(O)cc(O)c21` 244

----------
// UniProt P03372 IC50 records
Sequence (P03372 whole entry): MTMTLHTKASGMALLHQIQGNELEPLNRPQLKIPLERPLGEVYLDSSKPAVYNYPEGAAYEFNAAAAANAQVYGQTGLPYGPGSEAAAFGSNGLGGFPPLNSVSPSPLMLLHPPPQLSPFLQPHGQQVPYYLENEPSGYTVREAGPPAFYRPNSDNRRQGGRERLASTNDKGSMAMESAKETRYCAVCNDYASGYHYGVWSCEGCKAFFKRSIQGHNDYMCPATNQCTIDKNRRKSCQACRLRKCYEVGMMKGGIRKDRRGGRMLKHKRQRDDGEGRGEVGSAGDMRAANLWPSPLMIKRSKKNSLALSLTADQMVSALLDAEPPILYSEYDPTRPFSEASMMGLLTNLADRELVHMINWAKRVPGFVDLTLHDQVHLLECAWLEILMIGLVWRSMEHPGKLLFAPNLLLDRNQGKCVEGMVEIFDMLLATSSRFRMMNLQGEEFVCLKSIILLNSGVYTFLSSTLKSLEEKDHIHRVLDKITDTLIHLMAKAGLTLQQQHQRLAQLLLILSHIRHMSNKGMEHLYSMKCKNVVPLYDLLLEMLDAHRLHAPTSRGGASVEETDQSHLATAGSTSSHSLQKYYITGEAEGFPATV
State the answer as a number, implicitly in µM.

{"columns": ["molecule", "unit of measure", "IC50"],
 "data": [
  ["CCCc1c(O)cc(O)c2c1O[C@H](c1ccc(O)cc1)CC2=O", "µM", 0.155],
  ["CC(C)(C)Cc1c(O)cc(O)c2c1O[C@H](c1ccc(O)cc1)CC2=O", "µM", 0.216],
  ["Cc1c(O)cc(O)c2c1O[C@H](c1ccc(O)cc1)CC2=O", "µM", 5.25],
  ["CCCCCCCCCc1c(O)cc(O)c2c1O[C@H](c1ccc(O)cc1)CC2=O", "µM", 0.436],
  ["CCCCCc1c(O)cc(O)c2c1O[C@H](c1ccc(O)cc1)CC2=O", "µM", 0.383],
  ["CC(C)Cc1c(O)cc(O)c2c1O[C@H](c1ccc(O)cc1)CC2=O", "µM", 0.08],
  ["O=C1C[C@@H](c2ccc(O)cc2)Oc2c(Cc3ccccc3)c(O)cc(O)c21", "µM", 0.503],
  ["CC(C)CCc1c(O)cc(O)c2c1O[C@H](c1ccc(O)cc1)CC2=O", "µM", 0.14]
]}

Now for a further molecule.
Which IC50 is listed for O=C1C[C@@H](c2ccc(O)cc2)Oc2cc(O)cc(O)c21 [NARINGENIN] ? 75.3

This collection of values is drawn from ChEMBL document CHEMBL1137296.
